experimental system: Botulinum neurotoxin type A (Clostridium botulinum) (UniProt P0DPI0)
Sequence (P0DPI0 whole entry, looked up): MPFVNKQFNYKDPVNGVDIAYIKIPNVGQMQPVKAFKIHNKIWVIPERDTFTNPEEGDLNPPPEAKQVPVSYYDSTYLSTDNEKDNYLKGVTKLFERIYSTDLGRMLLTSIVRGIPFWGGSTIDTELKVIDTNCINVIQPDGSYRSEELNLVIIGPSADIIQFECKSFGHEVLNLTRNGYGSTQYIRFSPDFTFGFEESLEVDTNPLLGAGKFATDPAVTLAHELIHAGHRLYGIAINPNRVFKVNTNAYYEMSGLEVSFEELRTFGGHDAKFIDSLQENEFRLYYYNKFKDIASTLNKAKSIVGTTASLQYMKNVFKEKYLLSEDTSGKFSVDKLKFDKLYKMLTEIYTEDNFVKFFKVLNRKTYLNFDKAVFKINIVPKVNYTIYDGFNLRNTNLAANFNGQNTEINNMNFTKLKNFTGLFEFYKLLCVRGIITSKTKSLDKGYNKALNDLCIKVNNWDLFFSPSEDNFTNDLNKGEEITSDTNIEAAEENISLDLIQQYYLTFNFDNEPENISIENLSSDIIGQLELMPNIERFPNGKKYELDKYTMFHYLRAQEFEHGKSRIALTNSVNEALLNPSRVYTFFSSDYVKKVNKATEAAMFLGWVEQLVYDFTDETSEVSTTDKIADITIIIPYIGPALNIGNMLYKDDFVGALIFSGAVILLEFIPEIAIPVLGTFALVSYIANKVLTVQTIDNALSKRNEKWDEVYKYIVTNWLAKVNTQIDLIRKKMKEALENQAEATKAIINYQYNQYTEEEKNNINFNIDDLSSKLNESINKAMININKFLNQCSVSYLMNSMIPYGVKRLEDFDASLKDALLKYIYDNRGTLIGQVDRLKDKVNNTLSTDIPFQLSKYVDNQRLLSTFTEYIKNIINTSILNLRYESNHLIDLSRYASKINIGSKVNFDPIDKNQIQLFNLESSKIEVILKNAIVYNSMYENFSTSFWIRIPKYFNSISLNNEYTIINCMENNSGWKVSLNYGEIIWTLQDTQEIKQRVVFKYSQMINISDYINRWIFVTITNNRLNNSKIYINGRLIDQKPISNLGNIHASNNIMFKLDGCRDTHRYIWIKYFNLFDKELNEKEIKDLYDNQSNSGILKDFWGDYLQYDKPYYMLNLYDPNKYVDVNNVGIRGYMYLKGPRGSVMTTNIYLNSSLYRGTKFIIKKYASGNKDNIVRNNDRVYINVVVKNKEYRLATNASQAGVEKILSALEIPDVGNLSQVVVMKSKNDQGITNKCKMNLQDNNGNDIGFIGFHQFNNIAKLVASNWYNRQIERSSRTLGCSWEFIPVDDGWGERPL
method notes: BoNT/A light chain protease inhibitors, biochemical, multiplex microsphere flow cytometry, validation set (AID 588460)
measurement parameters: at 10 µM, hits give high values
Measured inhibition, listed per entry.

{"compound": "Cn1cc(/C=C/C(=O)c2ccccc2)c2ccccc21", "inhibition (%)": -0.5}
{"compound": "COc1ccc(OC)c(-c2oc3ccccc3c(=O)c2O)c1", "inhibition (%)": 1.3}
{"compound": "CC(C)CN(C)Cc1c(C(=O)N2CCc3ccccc3C2)nc2ccc(Cl)cn12", "inhibition (%)": 0.6}
{"compound": "Cc1cccc(C(=O)c2cccc(C)c2)c1", "inhibition (%)": -0.8}
{"compound": "CCCCOC(=O)c1ccc(N)cc1", "inhibition (%)": -1.1}
{"compound": "COc1cccc(N2CC34C=CC(O3)C(C(=O)O)C4C2=O)c1 (stereo unspecified)", "inhibition (%)": 0.3}
{"compound": "CCC1CCc2c(sc(NC(=O)c3cccnc3)c2C(N)=O)C1 (stereo unspecified)", "inhibition (%)": -2.3}
{"compound": "CC1(C)C(C=C(Cl)Cl)C1C(=O)N1CCN(Cc2ccccc2)CC1 (stereo unspecified)", "inhibition (%)": 0.8}
{"compound": "CCCCC[C@H](O)/C=C/[C@@H]1[C@@H](C/C=C\\CCCC(=O)O)[C@H]2CO[C@@H]1C2", "inhibition (%)": -0.1}
{"compound": "CC(=O)NCCCC(=O)NC(CCC(=O)OCc1ccccc1)C(=O)OCc1ccccc1 (stereo unspecified)", "inhibition (%)": -1.4}
{"compound": "CCn1cc(C(=O)O)c(=O)c2cnc(N3CCNCC3)nc21", "inhibition (%)": 1}

----------
experimental system: Botulinum neurotoxin type A (Clostridium botulinum)
method notes: BoNT/A light chain protease inhibitors, biochemical, multiplex microsphere flow cytometry, validation set (AID 588460)
measurement parameters: at 10 µM, hits give high values

{"molecule": "O=C(O)c1cc(-c2ccc3c(c2)OCO3)nc2ccc(Br)cc12", "inhibition, %": 3}
{"molecule": "COc1ccccc1/C=C/C(=O)c1c2c(c(C)[nH]c1=O)CCCC2", "inhibition, %": 0.5}
{"molecule": "NC(=O)c1cnccn1", "inhibition, %": 0.7}
{"molecule": "COc1ccc(CNC(=O)N[C@H](C(=O)O)C(C)C)cc1OC", "inhibition, %": -1.2}
{"molecule": "O=C(Cc1ccccc1[N+](=O)[O-])NCCCN1CCOCC1", "inhibition, %": -0.1}
{"molecule": "CCc1nc2ccccc2c(NC(=O)CN2CC(C)CC(C)C2)c1C (configuration not stated)", "inhibition, %": 0.8}
{"molecule": "COc1cc(CO)ccc1OCc1nnnn1-c1ccc(C)cc1", "inhibition, %": -1}
{"molecule": "CN(C)CCOCCOc1ccc(Cl)cc1Br", "inhibition, %": 1}
{"molecule": "COc1ccccc1N1CCN(CC(O)COc2cccc3ccccc23)CC1 (configuration not stated)", "inhibition, %": -2.3}
{"molecule": "CSCCC(NC(C)=O)C(=O)Oc1ccc2c3c(c(=O)oc2c1)CCCC3 (configuration not stated)", "inhibition, %": -1.8}
{"molecule": "Cc1cccc(Nc2ccccc2C(=O)O)c1C", "inhibition, %": -1.1}
{"molecule": "CCOc1ccc(C2C(C#N)=C(N)Oc3c2c(=O)oc2ccccc32)cc1 (configuration not stated)", "inhibition, %": 0.3}
